Reported pEC50 values are given for each entry in this list.
Molecular target: T1, Human IL-1Rrp2/IL-1R6 protein, His Tag (ACROBiosystems, IL2-H52H6) (human, UniProt Q9HB29 20-335)
T1 construct: Bought protein; the soluble protein is likely only the extracellular part; also called hIL-36R; human IL36R antigen; not shown: His tag
T1 sequence: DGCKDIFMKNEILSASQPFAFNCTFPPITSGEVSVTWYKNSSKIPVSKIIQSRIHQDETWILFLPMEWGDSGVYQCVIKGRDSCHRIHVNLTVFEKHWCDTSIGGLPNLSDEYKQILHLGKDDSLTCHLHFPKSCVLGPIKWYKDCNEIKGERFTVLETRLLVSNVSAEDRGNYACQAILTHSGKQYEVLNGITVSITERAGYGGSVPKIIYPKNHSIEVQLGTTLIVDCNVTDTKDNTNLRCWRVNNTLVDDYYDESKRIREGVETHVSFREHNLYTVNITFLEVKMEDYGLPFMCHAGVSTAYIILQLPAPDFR
Assay: ELISA, plate coated with human IL-1Rrp2/IL-1R6 His Tag, HRP-protein A/G, OD450
Description: The binding activity of anti-IL-36R antibodies to IL-36R was analyzed by ELISA using human IL-1Rrp2/IL-1R6 protein, His Tag (ACROBiosystems, IL2-H52H6) and CynoIL36R-ECD mFc (for detection of chimeric and humanized antibodies), and hIL36R-ECD hFc and CynoIL36R-ECD hFc protein (for detection of hybridoma antibodies) as antigens. […] Absorbance was read at 450 nm using a microplate reader (PE, Envision), the resulting data was analyzed using GraphPad Prism, and EC₅₀ was calculated. […]
For clarity, pEC50 is expressed as the negative log10 of concentration in mol/L.

>  <binder>
hz84C4-1.4 (antibody, human IgG4 S228P, kappa, V domains shown, Humanized, human IgG4 / kappa) VH: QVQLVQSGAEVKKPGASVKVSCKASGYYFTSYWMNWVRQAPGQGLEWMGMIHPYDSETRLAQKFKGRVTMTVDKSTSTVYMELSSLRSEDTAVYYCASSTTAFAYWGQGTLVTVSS VL: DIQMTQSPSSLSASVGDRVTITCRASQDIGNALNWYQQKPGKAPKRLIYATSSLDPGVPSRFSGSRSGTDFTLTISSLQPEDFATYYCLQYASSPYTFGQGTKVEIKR

>  <reportedMeasurement>
9.17

$$$$

Turning now to a further binder:
[Q] Which pEC50 is listed for hz84C4-1.1 (antibody, human IgG4 S228P, kappa, V domains shown, Humanized, human IgG4 / kappa) VH: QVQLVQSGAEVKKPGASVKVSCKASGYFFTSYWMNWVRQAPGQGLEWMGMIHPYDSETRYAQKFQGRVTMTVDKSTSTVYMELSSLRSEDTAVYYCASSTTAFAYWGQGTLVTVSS VL: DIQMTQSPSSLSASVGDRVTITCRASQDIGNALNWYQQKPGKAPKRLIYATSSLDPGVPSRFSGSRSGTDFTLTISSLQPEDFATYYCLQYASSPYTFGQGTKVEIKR ?
[A] 9.29
